# EXPERIMENTAL_TARGET: T1, Full-length human TIGIT on CHO-K1 cells (CHO-K1 human TIGIT) (human, UniProt Q495A1 22-244)
# T1 construct: NCBI XP_024309156.1; the entry includes the signal peptide (limits not recoverable); The strain (high, medium, low) is named under assay; also called high expression strain 1D2; medium expression strain 2D10
# T1 sequence: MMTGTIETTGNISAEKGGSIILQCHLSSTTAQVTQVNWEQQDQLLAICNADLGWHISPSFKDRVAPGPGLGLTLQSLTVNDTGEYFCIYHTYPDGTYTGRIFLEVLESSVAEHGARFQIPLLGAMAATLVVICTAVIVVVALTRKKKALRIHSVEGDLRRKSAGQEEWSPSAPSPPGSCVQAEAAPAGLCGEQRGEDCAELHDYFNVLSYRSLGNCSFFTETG
# METHOD_NOTES: cell binding, CHO-K1 human TIGIT high expression strain
RECORDED_METRIC: pEC50
On this scale, pEC50 is minus log10 of a concentration expressed in M (mol/L).

BINDER: TIGIT-CHI-005 (antibody, V domains shown, Human-mouse chimeric antibody) VH: QVQLQQSGAELVRPGTSVKVSCKASGYAFTNYLIEWVKQRPGQGLEWIGVINPGSGGTNYKEKFKGKATLTADKSSSTAYMQLSSLTSEDSAVYFCARGEYFFFDYWGQGTTLTVSS VL: DIVMTQSHKFMSTSVGDRVSITCKASQHVSNGVAWYQHKPGQSPKLLIYSASYRYTGVPDRFTGTGSGTDFTFTISSVQAEDLAVYYCQQHYNTPHTFGGGTKLEIK
pEC50: 10.59
--
BINDER: TIGIT-070-H3L2 (antibody, V domains shown, Humanized anti-TIGIT antibody) VH: EVQLVQSGAEVKKPGASVKVSCKASGYTFTNYYMHWVRQAPGQGLEWMGRIDPDSGGSKYNEKFKSRVTITVDKLSSTAYMELSSLRSEDTAVYYCAREGHYGFYSDYWGQGTTVTVSS VL: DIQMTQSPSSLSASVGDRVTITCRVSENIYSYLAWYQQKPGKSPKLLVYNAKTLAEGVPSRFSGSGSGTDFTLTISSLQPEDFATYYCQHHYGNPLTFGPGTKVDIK
pEC50: 10.56
--
BINDER: TIGIT-070-H1L2 (antibody, V domains shown, Humanized anti-TIGIT antibody) VH: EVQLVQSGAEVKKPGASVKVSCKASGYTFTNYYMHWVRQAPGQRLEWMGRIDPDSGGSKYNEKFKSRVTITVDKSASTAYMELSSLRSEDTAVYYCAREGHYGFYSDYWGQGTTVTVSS VL: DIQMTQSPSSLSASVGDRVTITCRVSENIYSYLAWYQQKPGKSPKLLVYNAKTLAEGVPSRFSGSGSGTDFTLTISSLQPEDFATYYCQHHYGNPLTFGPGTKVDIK
pEC50: 10.57
--
BINDER: TIGIT-006-H3L1 (antibody, V domains shown, Humanized anti-TIGIT antibody) VH: EVQLQESGPGLVKPSETLSLTCAVSGYSMTSDYWNWIRQPPGKKLEWIGYISYSGRTYYNPSLKSRVTISRDTSKNQFSLKLSSVTAADTAVYYCARGDYSNYGGAMYDWGQGTTVTVSS VL: DIVMTQTPLSLSVTPGQPASISCRASQGVSTTIAWYLQKPGQSPQLLIYSASYRYTGVPDRFSGSGSGTDFTLKISRVEAEDVGVYYCQQYYSSPFTFGGGTKVEIK
pEC50: 10.33

Here's the next entry for you.
Qu. Would you kindly share the measured pEC50 for TIGIT-002-H2L2 (antibody, V domains shown, Humanized anti-TIGIT antibody) VH: EVQLQESGPGLVKPSETLSLTCAVSGYSITSDSWNWIRQPPGKKLEWIGYISYSGNTYYNPSLKSRVTISRDTSKNQFSLKLSSVTAADTAVYYCARLDFSNYGGAVDYWGQGTTVTVSS VL: DIVMTQTPLSLSVTPGQPASISCKASQNVRTAVAWYQQKPGQSPQLMIYSASYRYTGVPDRFSGSGSGTDFTLKISRVEAEDVGVYYCQQYYTTPWTFGGGTKVEIK ?
Ans. 10.67
